Numbers sourced from ChEMBL document CHEMBL5329145.

test: Cytotoxicity against mouse J774.A1 cells assessed as reduction in cell growth incubated for 48 hrs by MTT assay; format: toxicity, cell-based
# Lookup of reported CC50 at 48 h keyed by entry
Enter the number, and then the unit.

Compound: Cc1ccc(-n2cc(CNC3=C(Cl)C(=O)OC3O)nn2)cc1C (stereo unspecified)
CC50 at 48 h: 93.5 µM

Query string: Entry under review: `CCCCCCCCCCCCCCCCOP(=O)([O-])OCC[N+](C)(C)C` . Reported CC50 at 48 h?
Result string: 52.1 µM

---

Entries and their measured pIC50 follow.
system: Leishmania donovani; experiment: Antileishmanial activity against Leishmania donovani MHOM/IN/80/Dd8 amastigotes infected in mouse J774.A1 cells assessed as inhibition of amastigotes growth incubated for 48 hrs by Steady-Glo reagent based luminescence analysis; format: functional, organism-based; conditions: MHOM/IN/80/Dd8, J774.A1, 48 h
Kindly note that pIC50 refers to -log10 of the concentration in mol/L and answer with the value alone.

Here is how some compounds turned out for pIC50.
Compound: C#CCNC1=C(Cl)C(=O)OC1O (centres undefined)
pIC50: 4.95
//
Compound: CCCCCCCCCCCCCCCCOP(=O)([O-])OCC[N+](C)(C)C [MILTEFOSINE]
pIC50: 5.03
//
Compound: O=C1OC(O)C(NCc2cn(-c3cccc(C(F)(F)F)c3)nn2)=C1Cl (centres undefined)
pIC50: 5.07
//
Compound: COc1cc(-n2cc(CNC3=C(Cl)C(=O)OC3O)nn2)cc(OC)c1OC (centres undefined)
pIC50: 4.95
//
Compound: O=C1OC(O)C(NCc2cn(-c3ccc(F)c(C(F)(F)F)c3)nn2)=C1Cl (centres undefined)
pIC50: 5.04
//
Compound: Cc1ccc(-n2cc(CNC3=C(Cl)C(=O)OC3O)nn2)cc1C (centres undefined)
pIC50: 5.00
//
Compound: O=C1OC(O)C(NCc2cn(-c3ccc(F)c(Cl)c3)nn2)=C1Cl (centres undefined)
pIC50: 4.98
//
Compound: O=C1OC(O)C(NCc2cn(-c3ccc(Cl)c(Cl)c3)nn2)=C1Cl (centres undefined)
pIC50: 5.06

Next compound, pIC50 to be filled in.
Query string: Entry O=C1OC(O)C(NCc2cn(-c3ccc(F)c(F)c3)nn2)=C1Cl (centres undefined) has what pIC50?
Result string: 5.08

---

experiment: AUC in golden hamster at 50 mg/kg, po measured after 5 mins to 24 hrs by LC-MS/MS analysis; type: ADME, organism-based, Mesocricetus auratus; parameters: time lower 5 min, dose 50 mg/kg, time upper 1440 min, route po; details: in vivo
Measured Endpoint: AUC
Quick note: unit goes after the number.

Query string: What value of AUC has been recorded for this entry: O=C1OC(O)C(NCc2cn(-c3ccc(F)c(F)c3)nn2)=C1Cl (stereo unspecified)
Result string: 4500 ng·h/mL

---

Each item that follows carries a reported CC50 at 48 h.
experiment: Cytotoxicity against mouse J774.A1 cells assessed as reduction in cell growth incubated for 48 hrs by MTT assay; format: toxicity, cell-based
Enter your answer as a number in µM; do not include the unit.

See these solved cases before continuing.
Compound: O=C1OC(O)C(NCc2cn(-c3ccc(F)c(Cl)c3)nn2)=C1Cl (stereo not drawn)
Output Unit: µM
CC50 at 48 h: 78
//
Compound: O=C1OC(O)C(NCc2cn(-c3cccc(C(F)(F)F)c3)nn2)=C1Cl (stereo not drawn)
Output Unit: µM
CC50 at 48 h: 102

Please find the next compound below.
Query string: So what does the record say about CC50 at 48 h for O=C1OC(O)C(NCc2cn(-c3ccc(F)c(F)c3)nn2)=C1Cl (stereo not drawn) ?
Result string: 172

---

assay: MRT in golden hamster at 50 mg/kg, po measured after 5 mins to 24 hrs by LC-MS/MS analysis; type: ADME, organism-based, Mesocricetus auratus; conditions: in vivo, time 5-1440 min
Measured Endpoint: MRT

Query string: Need MRT, item O=C1OC(O)C(NCc2cn(-c3ccc(F)c(F)c3)nn2)=C1Cl (stereo unspecified)
Result string: 3.64 h

---

assay: Tmax in golden hamster at 50 mg/kg, po measured after 5 mins to 24 hrs by LC-MS/MS analysis; format: ADME, organism-based, Mesocricetus auratus; settings: in vivo, time 5-1440 min
Measured Endpoint: Tmax (h)
State the answer as a number, implicitly in h.

Query string: Which Tmax is listed for O=C1OC(O)C(NCc2cn(-c3ccc(F)c(F)c3)nn2)=C1Cl (stereo unspecified) ?
Result string: 2

---

assay: Stability of compound in golden hamster plasma assessed as compound remaining measured for 120 mins by LC-MS analysis; format: ADME, cell-free, Mesocricetus auratus; conditions: read-out: Stability
Measured Endpoint: remaining at 2 h

Query string: Any idea what remaining at 2 h was measured for O=C1OC(O)C(NCc2cn(-c3ccc(F)c(F)c3)nn2)=C1Cl (stereo unspecified) ?
Result string: ≥ 70%

---

experiment: Cytotoxicity against mouse J774.A1 cells assessed as reduction in cell growth incubated for 48 hrs by MTT assay; assay type: toxicity, cell-based
Entries annotated with measured CC50 at 48 h
I only need the number, in µM, no unit after it.

Molecule: C#CCNC1=C(Cl)C(=O)OC1O (centres undefined)
Output Unit: µM
Recorded Measurement: 97.2

Molecule: O=C1OC(O)C(NCc2cn(-c3ccc(F)c(C(F)(F)F)c3)nn2)=C1Cl (centres undefined)
Output Unit: µM
Recorded Measurement: 136

Molecule: O=C1OC(O)C(NCc2cn(-c3ccc(Cl)c(Cl)c3)nn2)=C1Cl (centres undefined)
Output Unit: µM
Recorded Measurement: 84.2

Shifting focus to the molecule that follows.
Query string: Recorded CC50 at 48 h of COc1cc(-n2cc(CNC3=C(Cl)C(=O)OC3O)nn2)cc(OC)c1OC (centres undefined) , please.
Result string: 84.8

---

Recorded pIC50 values for a group of compounds are listed next.
test system: Leishmania donovani; test: Antileishmanial activity against Leishmania donovani MHOM/IN/80/Dd8 amastigotes infected in mouse J774.A1 cells assessed as inhibition of amastigotes growth incubated for 48 hrs by Steady-Glo reagent based luminescence analysis; type: functional, organism-based; conditions: MHOM/IN/80/Dd8, J774.A1, 48 h
pIC50: −log10 of the molar value.

Some solved entries appear below for comparison.
Compound: O=C1OC(O)C(NCc2cn(-c3ccc4c(c3)OCO4)nn2)=C1Cl (stereo not given)
Experimental Target: Leishmania donovani
pIC50: ≤ 4.30
//
Compound: CC(C)(C)c1ccc(-n2cc(CNC3=C(Cl)C(=O)OC3O)nn2)cc1 (stereo not given)
Experimental Target: Leishmania donovani
pIC50: ≤ 4.60
//
Compound: COc1ccc(-n2cc(CNC3=C(Cl)C(=O)OC3O)nn2)cc1 (stereo not given)
Experimental Target: Leishmania donovani
pIC50: ≤ 4.60
//
Compound: Cc1cc(C)c(-n2cc(CNC3=C(Cl)C(=O)OC3O)nn2)c(C)c1 (stereo not given)
Experimental Target: Leishmania donovani
pIC50: ≤ 4.70
//
Compound: O=C1OC(O)C(NCc2cn(-c3ccc(Cl)cc3)nn2)=C1Cl (stereo not given)
Experimental Target: Leishmania donovani
pIC50: ≤ 4.30
//
Compound: CC(C)c1ccc(-n2cc(CNC3=C(Cl)C(=O)OC3O)nn2)cc1 (stereo not given)
Experimental Target: Leishmania donovani
pIC50: ≤ 4.30
//
Compound: Cc1ccc(-n2cc(CNC3=C(Cl)C(=O)OC3O)nn2)cc1F (stereo not given)
Experimental Target: Leishmania donovani
pIC50: ≤ 4.70
//
Compound: O=C1OC(O)C(NCc2cn(-c3ccccc3Oc3ccccc3)nn2)=C1Cl (stereo not given)
Experimental Target: Leishmania donovani
pIC50: ≤ 4.70

Query string: // pIC50 lookup, key: O=C1OC(O)C(NCc2cn(-c3ccccc3[N+](=O)[O-])nn2)=C1Cl (stereo not given)
Result string: ≤ 4.60

Query string: Need pIC50, item Cc1ccc(C)c(-n2cc(CNC3=C(Cl)C(=O)OC3O)nn2)c1 (stereo not given)
Result string: ≤ 4.30
